- Measured target: human Kv1.3 (Homo sapiens, UniProt P22001)
- Construct: expressed in transfected cells; host or cells: stably transfected cells grown in medium for CHO cells
- Sequence (P22001 whole entry): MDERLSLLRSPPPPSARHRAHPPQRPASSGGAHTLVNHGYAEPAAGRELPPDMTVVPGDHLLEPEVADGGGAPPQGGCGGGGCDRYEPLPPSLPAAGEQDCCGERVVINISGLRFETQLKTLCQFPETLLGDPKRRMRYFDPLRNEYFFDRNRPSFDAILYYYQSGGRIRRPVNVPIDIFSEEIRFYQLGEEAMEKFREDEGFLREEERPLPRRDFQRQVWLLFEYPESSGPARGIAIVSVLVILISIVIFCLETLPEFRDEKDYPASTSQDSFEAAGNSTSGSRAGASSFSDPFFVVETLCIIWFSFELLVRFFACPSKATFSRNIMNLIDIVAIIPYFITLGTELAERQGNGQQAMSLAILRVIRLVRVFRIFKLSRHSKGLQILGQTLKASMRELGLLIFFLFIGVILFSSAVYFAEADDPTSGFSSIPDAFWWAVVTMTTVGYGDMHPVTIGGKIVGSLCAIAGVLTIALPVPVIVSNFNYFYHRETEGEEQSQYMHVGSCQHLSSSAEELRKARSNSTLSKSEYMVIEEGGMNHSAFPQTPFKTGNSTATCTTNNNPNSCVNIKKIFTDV
- Procedure summary: Kv1.3 Autopatch electrophysiology (whole cell patch-clamp, inhibition of charge movement)
- Format: cell-based
- Study conditions: compound at 1 μM; cells stably transfected with human Kv1.3; room temperature; total charge during step to +30 mV relative to control; read-out: hKv1.3 % inh.
Endpoint name: inhibition at 1 µM (%)

Record excerpt, results attached:
{"columns": ["Compound", "Value units", "inhibition at 1 µM"],
 "data": [
  ["O=C(c1ccc(N(Cc2ccccc2)S(=O)(=O)c2ccco2)cc1)N1CCN(c2ccccc2)CC1 [Example 41]", "%", 81],
  ["Cn1cnc(S(=O)(=O)N(Cc2cccc(F)c2)c2ccc(C(=O)N3CCN(c4ccccc4)CC3)cc2)c1 [Example 44]", "%", 76],
  ["O=C(c1ccc(N(Cc2ccccc2)S(=O)(=O)c2ccccc2)c(F)c1)N1CCN(c2ccccc2)CC1 [Example 53]", "%", 42],
  ["O=C(c1ccc(N(Cc2ccccc2)S(=O)(=O)c2ccccc2F)cc1)N1CCN(c2ccccc2)CC1 [Example 20]", "%", 82],
  ["O=C(c1ccc(N(Cc2ccccc2)S(=O)(=O)c2ccccc2)cc1)N1CCN(c2ccccc2)CC1 [Example 9]", "%", 99],
  ["Cc1cccc(S(=O)(=O)N(Cc2ccccc2)c2ccc(C(=O)N3CCN(c4ccccc4)CC3)cc2)c1 [Example 27]", "%", 55],
  ["Cc1cc(N(Cc2ccccc2)S(=O)(=O)c2ccccc2)ccc1C(=O)N1CCN(c2ccccc2)CC1 [Example 52]", "%", 67],
  ["O=C(c1ccc(N(Cc2cccc(F)c2)S(=O)(=O)c2ccccc2)cc1)N1CCN(c2ccccc2)CC1 [Example 31]", "%", 67],
  ["Cn1cnc(S(=O)(=O)N(Cc2ccccc2)c2ccc(C(=O)N3CCOC(c4ccccc4)C3)cc2)c1 (stereo not shown) [Example 63]", "%", 93],
  ["Cc1cc(C(=O)N2CCN(c3ccccc3)CC2)ccc1N(Cc1ccccc1)S(=O)(=O)c1cn(C)cn1 [Example 49]", "%", 76]
]}

I. CN1CCN(C(=O)c2ccc(N(Cc3ccccc3)S(=O)(=O)c3ccnn3C)cc2)CC1c1ccccc1 (stereo not shown) [Example 91]
II. Cn1cnc(S(=O)(=O)N(Cc2ccc(Cl)cc2)c2ccc(C(=O)N3CCC(F)(F)C3)cc2)c1 [Example 100]
III. O=C(c1ccc(N(Cc2ccccc2)S(=O)(=O)c2cccs2)cc1)N1CCN(c2ccccc2)CC1 [Example 17]
Q: Order the 3 compounds from highest to lowest inhibition at 1 µM. Answer format: list of labels, ordered as asked.
Ans: I, II, III
(I: 81%, II: 52%, III: 34%)

1. Cc1ccccc1S(=O)(=O)N(Cc1ccccc1)c1ccc(C(=O)N2CCN(c3ccccc3)CC2)cc1 [Example 26]
2. Cn1cnc(S(=O)(=O)N(Cc2ccccc2)c2ccc(C(=O)N3CCN(C(=O)OC(C)(C)C)C(c4ccccc4)C3)cc2)c1 (stereo not shown) [Example 81]
Q: Looking at 1 and 2 , which one comes out lower in inhibition at 1 µM terms? State the label of the item chosen.
Ans: 2

###

- Measured target: human Kv1.3 (Homo sapiens, UniProt P22001)
- Construct: expressed in transfected cells; host or cells: stably transfected cells grown in medium for CHO cells
- Procedure summary: Kv1.3 Autopatch electrophysiology (whole cell patch-clamp, inhibition of charge movement)
- Type: cell-based
- Study conditions: compound at 1 μM; cells stably transfected with human Kv1.3; room temperature; total charge during step to +30 mV relative to control; read-out: hKv1.3 % inh.
Endpoint name: inhibition at 1 µM (%)

Record excerpt, results attached:
{"columns": ["Compound", "Value units", "Test value"],
 "data": [
  ["CC1CCCN(C(=O)c2ccc(N(Cc3ccc(Cl)cc3)S(=O)(=O)c3cn(C)cn3)cc2)C1 (stereo not drawn)", "%", 61],
  ["O=C(c1ccc(N(Cc2cccc(Cl)c2)S(=O)(=O)c2ccccc2)cc1)N1CCN(c2ccccc2)CC1", "%", 92],
  ["Cn1cnc(S(=O)(=O)N(Cc2cccc(Cl)c2)c2ccc(C(=O)N3CCCCC3)cc2)c1", "%", 67],
  ["CN(C)S(=O)(=O)N(Cc1ccccc1)c1ccc(C(=O)N2CCOC(c3ccccc3)C2)cc1F (stereo not drawn)", "%", 67],
  ["N#Cc1ccc(CN(c2ccc(C(=O)N3CCN(c4ccccc4)CC3)cc2)S(=O)(=O)c2ccccc2)cc1", "%", 76]
]}

P. Cn1cnc(S(=O)(=O)N(Cc2ccc(Cl)cc2)c2ccc(C(=O)N3CCCC(Oc4ccccc4)C3)cc2)c1 (stereo not drawn)
Q. CC1CN(C(=O)c2ccc(N(Cc3ccccc3)S(=O)(=O)c3ccccc3)cc2)CC(C)O1 (stereo not drawn)
Q: // pick larger inhibition at 1 µM from pair: P vs Q State the label of the item chosen.
Ans: P

###

- Measured target: hKv1.5 (Homo sapiens, UniProt P22460)
- Sequence (P22460 whole entry): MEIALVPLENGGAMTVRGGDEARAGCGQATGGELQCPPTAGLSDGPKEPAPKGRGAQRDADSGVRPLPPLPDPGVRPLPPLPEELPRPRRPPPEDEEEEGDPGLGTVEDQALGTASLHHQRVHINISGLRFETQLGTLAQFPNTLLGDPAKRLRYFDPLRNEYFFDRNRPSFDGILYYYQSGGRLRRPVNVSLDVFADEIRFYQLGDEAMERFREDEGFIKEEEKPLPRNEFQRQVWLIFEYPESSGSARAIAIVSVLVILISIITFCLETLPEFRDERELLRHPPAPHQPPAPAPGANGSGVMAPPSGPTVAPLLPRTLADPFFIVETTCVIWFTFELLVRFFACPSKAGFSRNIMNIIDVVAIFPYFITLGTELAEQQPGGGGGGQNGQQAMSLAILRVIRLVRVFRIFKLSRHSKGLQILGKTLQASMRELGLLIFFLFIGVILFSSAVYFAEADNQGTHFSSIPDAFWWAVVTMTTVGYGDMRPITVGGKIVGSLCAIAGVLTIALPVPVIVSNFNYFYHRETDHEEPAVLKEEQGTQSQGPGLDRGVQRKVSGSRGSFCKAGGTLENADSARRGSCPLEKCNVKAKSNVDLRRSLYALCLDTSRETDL
- Procedure summary: Kv1.5 Autopatch electrophysiology (whole cell patch-clamp)
- Type: cell-based
- Study conditions: compound at 1 μM; room temperature (22-24° C.); total charge during step to 0 mV; read-out: hKv1.5 % inh.
- Description: Kv1.5 Autopatch Electrophysiology Method The external bathing solution contained (in mM): 150 NaCl, 10 KCl, […], 3 MgCl2, 1 CaCl2, 10 HEPES, pH 7.4. […] Electrophysiology voltage-step protocols and analysis of data was performed as follows. […] Currents were analysed using Pulsefit software (v8.54, HEKA, Germany), with the total charge measured during the whole of the voltage step. […]
Endpoint name: inhibition at 1 µM (%)

Record excerpt, results attached:
{"columns": ["Smiles string", "inhibition at 1 µM (%)"],
 "data": [
  ["O=C(c1ccc(N(Cc2ccccc2)S(=O)(=O)c2cccc(Cl)c2)cc1)N1CCN(c2ccccc2)CC1", 85.6],
  ["O=C(c1ccc(N(Cc2ccccc2)S(=O)(=O)c2cccs2)cc1)N1CCN(c2ccccc2)CC1", 47.3],
  ["Cn1cnc(S(=O)(=O)N(Cc2cccc(Cl)c2)c2ccc(C(=O)N3CCCCC3)cc2)c1", 43.4],
  ["O=C(c1ccc(N(Cc2ccc(Cl)cc2)S(=O)(=O)c2ccccc2)cc1)N1CCN(c2ccccc2)CC1", 94]
]}

a. COc1cc(N(Cc2ccccc2)S(=O)(=O)c2ccccc2)ccc1C(=O)N1CCN(c2ccccc2)CC1
b. Cn1cnc(S(=O)(=O)N(Cc2ccccc2)c2ccc(C(=O)N3CCN(c4ccccc4)CC3)cc2)c1
Q: Looking at a and b , which one comes out lower in inhibition at 1 µM terms? State the label of the item chosen.
Ans: b
(b: 58.8%, a: 89.6%)

###

- Measured target: hKv1.5 (Homo sapiens, UniProt P22460)
- Procedure summary: Kv1.5 Autopatch electrophysiology (whole cell patch-clamp)
- Assay type: cell-based
- Study conditions: compound at 1 μM; room temperature (22-24° C.); total charge during step to 0 mV; read-out: hKv1.5 % inh.
- Method: Kv1.5 Autopatch Electrophysiology Method The external bathing solution contained (in mM): 150 NaCl, 10 KCl, […], 3 MgCl2, 1 CaCl2, 10 HEPES, pH 7.4. […] Electrophysiology voltage-step protocols and analysis of data was performed as follows. […] Currents were analysed using Pulsefit software (v8.54, HEKA, Germany), with the total charge measured during the whole of the voltage step. […]
Endpoint name: inhibition at 1 µM (%)

{"columns": ["Molecule", "inhibition at 1 µM (%)"],
 "data": [
  ["Cc1ccc(CN(c2ccc(C(=O)N3CCN(c4ccccc4)CC3)cc2)S(=O)(=O)c2ccccc2)cc1", 68.9],
  ["CCc1ccc(S(=O)(=O)N(Cc2ccccc2)c2ccc(C(=O)N3CCN(c4ccccc4)CC3)cc2)cc1", 66.4],
  ["Cc1cc(N(Cc2ccccc2)S(=O)(=O)c2ccccc2)ccc1C(=O)N1CCN(c2ccccc2)CC1", 93.6],
  ["Cc1ccccc1S(=O)(=O)N(Cc1ccccc1)c1ccc(C(=O)N2CCN(c3ccccc3)CC2)cc1", 85.5],
  ["N#Cc1cccc(S(=O)(=O)N(Cc2ccccc2)c2ccc(C(=O)N3CCN(c4ccccc4)CC3)cc2)c1", 93.1]
]}

1. O=C(c1ccc(N(Cc2ccccc2)S(=O)(=O)c2ccccc2)cc1)N1CCN(c2ccccc2)CC1
2. O=C(c1ccc(N(Cc2ccccc2)S(=O)(=O)c2ccccc2)c(F)c1)N1CCN(c2ccccc2)CC1
Q: Looking at 1 and 2 , which one comes out lower in inhibition at 1 µM terms? State the label of the item chosen.
Ans: 1

P. O=C(c1ccc(N(Cc2ccccc2)S(=O)(=O)c2ccccc2F)cc1)N1CCN(c2ccccc2)CC1
Q. COc1cccc(CN(c2ccc(C(=O)N3CCN(c4ccccc4)CC3)cc2)S(=O)(=O)c2ccccc2)c1
Q: // pick larger inhibition at 1 µM from pair: P vs Q State the label of the item chosen.
Ans: P
(P: 88.8%, Q: 55.7%)

A. O=C(c1ccc(N(Cc2ccccc2)S(=O)(=O)c2ccsc2)cc1)N1CCN(c2ccccc2)CC1
B. Cc1cc(C(=O)N2CCN(c3ccccc3)CC2)ccc1N(Cc1ccccc1)S(=O)(=O)c1cn(C)cn1
Q: // pick larger inhibition at 1 µM from pair: A vs B State the label of the item chosen.
Ans: A
(A: 82.9%, B: 50%)
